B1: library; a variant is named by its letters at N, in order (parent)
chain: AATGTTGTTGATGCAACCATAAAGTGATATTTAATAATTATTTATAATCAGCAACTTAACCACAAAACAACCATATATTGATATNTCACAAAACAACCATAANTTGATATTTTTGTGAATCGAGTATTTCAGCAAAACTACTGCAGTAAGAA

Variants of: B1
test.summary: relative integration efficiency (T-RL orientation) vs wild-type transposon end (log2 (normalized fold change)); transposon end mutated: left end; higher = more efficient transposition
experimental.context: with VchCAST RNA-guided transposition machinery (E. coli BL21(DE3) host, lacZ target)
// classify(record): look up relative integration efficiency (log2) in ranges bottom: < -0.2; middle: ≥ -0.2 and < -0.06; top: ≥ -0.06

Look over these answered cases.
[[record]]
mutation_id = "TG A22T G24T T31C A33C T76A A77G C87T"
classification = "bottom"

[[record]]
mutation_id = "CG T86G C87A"
classification = "bottom"

[[record]]
mutation_id = "CG A66T A67T"
classification = "top"

[[record]]
mutation_id = "CG G24T T25G"
classification = "bottom"

[[record]]
mutation_id = "AG T86G C87A A88C"
classification = "middle"


Exercise: Which relative integration efficiency (log2) category applies to CG G7T T8G here?
Solution: bottom

Exercise: Class? Entry: TG A70C T76A T86G
Solution: middle

Exercise: Note: place this variant into its band. Item: CG T82C
Solution: top

Exercise: Pick a category. Item: CG T57A A58T
Solution: bottom

Exercise: Note: place this variant into its band. Item: CG A1T A2T
Solution: top

Exercise: Where would CG T25C land among the classes by reported relative integration efficiency (log2)?
Solution: middle

Exercise: Band assignment needed for CG A83G please.
Solution: top

Exercise: Band for the recorded relative integration efficiency (log2) of TA G24A T30A A70C T76A T84A C87A A102T T111C T113C ?
Solution: middle

Attribution: the supplement of paper PMC10201428
